Biological target: P-gp (ABCB1) (Homo sapiens, UniProt P08183)
Sequence (P08183 whole entry): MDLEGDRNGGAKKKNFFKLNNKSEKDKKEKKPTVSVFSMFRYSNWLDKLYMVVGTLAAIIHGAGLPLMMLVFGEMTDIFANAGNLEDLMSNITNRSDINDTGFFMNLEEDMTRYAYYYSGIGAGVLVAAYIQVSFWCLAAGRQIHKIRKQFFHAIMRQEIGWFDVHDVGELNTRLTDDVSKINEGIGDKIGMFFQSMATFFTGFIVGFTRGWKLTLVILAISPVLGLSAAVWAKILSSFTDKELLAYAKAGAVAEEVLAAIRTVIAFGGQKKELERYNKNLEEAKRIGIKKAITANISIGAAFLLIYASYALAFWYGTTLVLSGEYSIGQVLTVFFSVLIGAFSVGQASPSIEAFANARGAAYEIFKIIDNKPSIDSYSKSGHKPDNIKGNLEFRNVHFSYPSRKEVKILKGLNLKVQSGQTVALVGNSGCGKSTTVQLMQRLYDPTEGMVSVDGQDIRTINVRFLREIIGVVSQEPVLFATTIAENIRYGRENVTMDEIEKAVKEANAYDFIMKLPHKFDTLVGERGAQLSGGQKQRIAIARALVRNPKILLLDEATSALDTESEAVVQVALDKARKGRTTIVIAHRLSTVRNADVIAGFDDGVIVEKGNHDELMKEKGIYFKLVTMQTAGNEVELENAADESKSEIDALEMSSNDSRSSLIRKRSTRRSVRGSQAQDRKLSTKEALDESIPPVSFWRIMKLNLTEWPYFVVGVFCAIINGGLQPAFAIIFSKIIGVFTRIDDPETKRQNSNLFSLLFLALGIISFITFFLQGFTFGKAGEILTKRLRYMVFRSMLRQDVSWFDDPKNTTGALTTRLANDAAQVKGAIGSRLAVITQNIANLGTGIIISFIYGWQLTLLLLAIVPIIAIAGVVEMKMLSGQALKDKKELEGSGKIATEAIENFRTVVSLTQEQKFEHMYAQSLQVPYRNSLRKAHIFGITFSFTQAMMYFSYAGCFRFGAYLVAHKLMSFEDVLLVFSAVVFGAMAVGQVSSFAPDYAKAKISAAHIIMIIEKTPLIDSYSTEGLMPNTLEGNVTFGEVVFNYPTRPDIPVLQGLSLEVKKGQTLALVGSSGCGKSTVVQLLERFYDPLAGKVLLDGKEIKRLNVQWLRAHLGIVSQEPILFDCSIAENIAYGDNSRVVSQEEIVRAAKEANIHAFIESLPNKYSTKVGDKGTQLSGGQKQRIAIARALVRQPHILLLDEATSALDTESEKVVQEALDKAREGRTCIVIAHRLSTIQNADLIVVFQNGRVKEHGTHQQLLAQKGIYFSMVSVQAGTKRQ
Experiment: Substrate activity at human P-gp assessed as efflux ratio
Assay type: ADME
Conditions: not told
observed_property: efflux ratio

{"compound": "Fc1ccc(C2CCCCn3nc(N[C@@H]4[C@@H]5CC[C@H]4CN(c4cc(Cl)ncn4)C5)nc32)c(F)c1F (mixture of isomers)", "efflux ratio": 1.5}

(P) Cc1cc(N2C[C@H]3CC[C@@H](C2)[C@@H]3Nc2nc3n(n2)CCCCC3c2cccc(C(F)(F)F)c2)ncn1 (mixture of isomers)
(Q) COc1cc(N2C[C@H]3CC[C@@H](C2)[C@@H]3Nc2nc3n(n2)CCCCC3c2ccc(F)c(F)c2F)ccn1 (mixture of isomers)
Challenge: Between P and Q , which one shows the smaller efflux ratio number? Answer = label.
Response given: Q
(Q: 1.2, P: 2.2)

###

Test: Clearance in human hepatocytes assessed per million cells
Type: ADME, cell-based, Hepatocyte
Settings: read-out: CLH
observed_property: hepatocyte CLint (µL/min/1e6 cells)

For orientation, consider the following solved cases.
{"compound": "Cc1cc(N2C[C@H]3CC[C@@H](C2)[C@@H]3Nc2nc3n(n2)CCCCC3c2ccc(F)c(F)c2)ncn1 (mixture of isomers)", "display_unit": "µL/min/1e6 cells", "hepatocyte CLint": 6.5}
{"compound": "Cc1cc(N2C[C@H]3CC[C@@H](C2)[C@@H]3Nc2nc3n(n2)CCCCC3c2ccc(F)c(F)c2F)ncn1 (mixture of isomers)", "display_unit": "µL/min/1e6 cells", "hepatocyte CLint": 3.1}
{"compound": "Fc1ccc(C2CCCCn3nc(N[C@@H]4[C@@H]5CC[C@H]4CN(c4cc(Cl)ncn4)C5)nc32)c(F)c1F (mixture of isomers)", "display_unit": "µL/min/1e6 cells", "hepatocyte CLint": 2.6}

(1) Cc1cc(N2C[C@H]3CC[C@@H](C2)[C@@H]3Nc2nc3n(n2)CCCC[C@H]3c2ccc(F)c(F)c2F)ncn1
(2) Cc1cc(N2C[C@H]3CC[C@@H](C2)[C@@H]3Nc2nc3n(n2)CCCCC3c2cccc(C(F)(F)F)c2)ncn1 (mixture of isomers)
Challenge: Between 1 and 2 , which one shows the smaller hepatocyte CLint number? Answer = label.
Response given: 1

###

Test: Clearance in mouse hepatocytes assessed per million cells
Format: ADME, cell-based, Hepatocyte
Conditions: read-out: CLH
observed_property: hepatocyte CLint (µL/min/1e6 cells)

(1) Cc1cc(N2C[C@H]3CC[C@@H](C2)[C@@H]3Nc2nc3n(n2)CCCN3c2cc(F)cc(F)c2)ncn1
(2) Cc1cc(N2C[C@H]3CC[C@@H](C2)[C@@H]3Nc2nc3n(n2)CCCC[C@H]3c2ccc(F)c(F)c2F)ncn1
Challenge: Between 1 and 2 , which one shows the smaller hepatocyte CLint number? Answer = label.
Response given: 1
(1: 0.6 µL/min/1e6 cells, 2: 1.4 µL/min/1e6 cells)

###

System: P-gp
Experiment: Substrate activity at mouse P-gp assessed as efflux ratio
Format: ADME
Details: not told
observed_property: efflux ratio
Please respond with just the number, no unit label.

# lookup: Cc1cc(N2C[C@H]3CC[C@@H](C2)[C@@H]3Nc2nc3n(n2)CCCC[C@H]3c2ccc(F)c(F)c2F)ncn1 on P-gp, efflux ratio = 3.3

###

Assay: Oral bioavailability in Wistar rat at 3 mg/kg administered as single dose
Assay type: ADME, organism-based
Conditions: in vivo
observed_property: bioavailability (%)
Numbers only here, please. The scale is %.

// bioavailability value for Cc1cc(N2C[C@H]3CC[C@@H](C2)[C@@H]3Nc2nc3n(n2)CCCN3c2cc(F)cc(F)c2)ncn1 : 82
